Test system: HOX-med/low AML patient cells
assay_remarks: Primary chemical screen of 60 compounds, cell dose-response viability assay (CellTiterGlo, 6 days)
Assay type: cell-based, human
settings: Homo sapiens, 144 h; primary screen; mean over HOX-med/low patient specimens; 6 days culture; top concentration 10 μM or 20 μM; read-out: MEAN EC50 HOX-med/low
property: log10 of EC50 (log10 of the value in µM)
Quick note: numbers are log10 of EC50, with µM as the unit.

Example results:
smiles_repr | quantitative_readout
Cc1nc(Nc2ncc(C(=O)Nc3c(C)cccc3Cl)s2)cc(N2CCN(CCO)CC2)n1 | -0.49
CCCS(=O)(=O)Nc1ccc(F)c(C(=O)c2c[nH]c3ncc(-c4ccc(Cl)cc4)cc23)c1F | 0.93
CN(C)CCOc1ccc(-c2nc(-c3ccncc3)c(-c3ccc4c(c3)CC/C4=N\O)[nH]2)cc1 | 0.59

Report log10 of EC50 for COc1cc2nccc(Oc3ccc(NC(=O)NC4CC4)c(Cl)c3)c2cc1C(N)=O please. 0.52

Item: NC(=O)N1CCC(CC(=O)N2CCC([C@H]3c4ncc(Br)cc4CCc4cc(Cl)cc(Br)c43)CC2)CC1 0.56

Item: CC[C@H](Nc1ncnc2[nH]cnc12)c1nc2cccc(F)c2c(=O)n1-c1ccccc1 0.75
